Reference source for all entries: patent US20250387400A1

# TESTED_ON: catalytic kinase (JH1) domain of human TYK2 (Homo sapiens, UniProt P29597)
# Construct: recombinantly generated catalytic kinase (also known as JH1) domain of human JAK1, JAK2, JAK3 and TYK2
# Sequence (P29597 897-1176 limits assumed): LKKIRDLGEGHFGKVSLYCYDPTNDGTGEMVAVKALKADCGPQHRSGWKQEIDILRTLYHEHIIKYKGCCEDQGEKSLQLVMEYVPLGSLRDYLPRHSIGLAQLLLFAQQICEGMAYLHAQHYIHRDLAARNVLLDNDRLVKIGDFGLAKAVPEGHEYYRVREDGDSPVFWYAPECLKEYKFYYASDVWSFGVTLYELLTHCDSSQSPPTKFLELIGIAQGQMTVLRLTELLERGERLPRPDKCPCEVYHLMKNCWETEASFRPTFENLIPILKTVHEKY
# TEST_NAME: ADP-Glo kinase assay, TYK2 kinase domain
# Format: biochemical
OBSERVED_PROPERTY: IC50 (nM)
Answer with a number only, understood to be in nM.

Q: Entry Cn1cc(-c2cc3c(N4CC5CCC(C4)N5[C@@H]4CCC45COC5)ccnn3c2)cn1 (single isomer, unassigned) : reported IC50 = ?
A: 71

Q: Entry Cn1cc(-c2cc3c(N4CC5CCC(C4)N5[C@@H]4C[C@H](C#N)C4(C)C)ccnn3c2)cn1 (single isomer, unassigned) : reported IC50 = ?
A: 35

Q: Entry Cn1cc(-c2cc3c(N4CC5CCC(C4)N5[C@H]4C[C@H](C#N)C4(C)C)ccnn3c2)cn1 (single isomer, unassigned) : reported IC50 = ?
A: 34

Q: Entry COc1cc(-c2cc3c(N4CC5CCC(C4)N5C4CC(C#N)C4)ccnc3[nH]2)ccn1 (stereo not shown) : reported IC50 = ?
A: 4.05
